Observed pIC50, system Genome polyprotein (dengue virus type 2).
pIC50: −log10 of the molar value.
Quantity: pIC50

Cpd Smiles	Quantity	Readout Number
N=C(N)NCCC[C@H](NC(=O)c1ccccc1)C(=O)N[C@@H](CCCCN)C(=O)N[C@@H]1CN(c2ccccc2)C1=O	pIC50	4.75
N=C(N)NCCC[C@H](NC(=O)c1ccccc1)C(=O)N[C@@H](CCCCN)C(=O)N[C@@H](C(=O)N[C@H]1CN(c2ccc(F)cc2)C1=O)c1ccc(OCc2ccccc2)cc1	pIC50	5.60
N=C(N)NCCC[C@H](NC(=O)c1ccccc1)C(=O)N[C@@H](CCCCN)C(=O)N[C@@H](C(=O)N[C@@H]1CN(c2cccc(F)c2)C1=O)c1ccc(OCc2ccccc2)cc1	pIC50	4.91
Cc1cccc(N2C[C@@H](NC(=O)[C@H](NC(=O)[C@H](CCCCN)NC(=O)[C@H](CCCNC(=N)N)NC(=O)c3ccccc3)c3ccc(OCc4ccccc4)cc3)C2=O)c1	pIC50	4.79
N=C(N)NCCC[C@H](NC(=O)c1ccccc1)C(=O)N[C@@H](CCCCN)C(=O)N[C@@H](C(=O)N[C@H]1CN(c2cccc(F)c2)C1=O)c1ccc(OCc2ccccc2)cc1	pIC50	5.72
N=C(N)NCCC[C@H](NC(=O)c1ccccc1)C(=O)N[C@@H](CCCCN)C(=O)N[C@@H](C(=O)N[C@H]1CN(c2ccccc2)C1=O)c1ccc(OCc2ccccc2)cc1	pIC50	5.64

====

Consider the following compounds and their measured inhibition readings.
Biological target: Genome polyprotein (dengue virus type 2) (UniProt P29990)
Assay: Inhibition of Dengue virus NS2B-NS3 protease at 50 uM using 2-Abz-Nle-Lys-Arg-Arg-Ser-(3-NO2)-Tyr-NH2 FRET substrate preincubated for 15 mins followed by substrate addition measured after 15 mins by fluorimetric analysis relative to control

Cpd Smiles	inhibition
N=C(N)NCCC[C@H](NC(=O)c1ccccc1)C(=O)N[C@@H](CCCCN)C(=O)N[C@@H]1CN(c2ccccc2)C1=O	71.6%
N=C(N)NCCC[C@H](NC(=O)c1ccccc1)C(=O)N[C@@H](CCCCN)C(=O)N[C@H]1CN(c2ccccc2)C1=O	57.1%
CCCC[C@H](NC(=O)[C@H](CCCCN)NC(=O)c1ccccc1)C(=O)N[C@H]1CN(c2ccccc2)C1=O	< 20%
Cc1cccc(N2C[C@@H](NC(=O)[C@H](NC(=O)[C@H](CCCCN)NC(=O)[C@H](CCCNC(=N)N)NC(=O)c3ccccc3)c3ccc(OCc4ccccc4)cc3)C2=O)c1	77.7%

====

Target: Genome polyprotein (dengue virus type 2)
Experiment: Inhibition of Dengue virus NS2B-NS3 protease at 50 uM using 2-Abz-Nle-Lys-Arg-Arg-Ser-(3-NO2)-Tyr-NH2 FRET substrate preincubated for 15 mins followed by substrate addition measured after 15 mins by fluorimetric analysis relative to control
inhibition values by entry

Cpd Smiles	Test System	inhibition
N=C(N)NCCC[C@H](NC(=O)c1ccccc1)C(=O)N[C@@H](CCCCN)C(=O)N[C@@H](C(=O)N[C@H]1CN(c2cccc(F)c2)C1=O)c1ccc(OCc2ccccc2)cc1	Genome polyprotein (dengue virus type 2)	96.8%
CCCC[C@H](NC(=O)[C@H](CCCCN)NC(=O)c1ccccc1)C(=O)N[C@@H]1CN(c2ccccc2)C1=O	Genome polyprotein (dengue virus type 2)	< 20%
N=C(N)NCCC[C@H](NC(=O)c1ccccc1)C(=O)N[C@@H](CCCCN)C(=O)N[C@@H](C(=O)N[C@@H]1CN(c2cccc(F)c2)C1=O)c1ccc(OCc2ccccc2)cc1	Genome polyprotein (dengue virus type 2)	80.8%
NCCCC[C@H](NC(=O)c1ccccc1)C(=O)N[C@@H](CCCCN)C(=O)N[C@@H]1CN(c2ccccc2)C1=O	Genome polyprotein (dengue virus type 2)	39.7%
CCCC[C@H](NC(=O)[C@H](CCCNC(=N)N)NC(=O)c1ccccc1)C(=O)N[C@@H]1CN(c2ccccc2)C1=O	Genome polyprotein (dengue virus type 2)	< 20%
N=C(N)NCCC[C@H](NC(=O)c1ccccc1)C(=O)N[C@@H](CCCCN)C(=O)N[C@@H](C(=O)N[C@@H]1CN(c2ccccc2)C1=O)c1ccc(OCc2ccccc2)cc1	Genome polyprotein (dengue virus type 2)	68.8%
